The reported measurements were obtained from paper PMC12627862.

# test_description: in vivo
# experimental_setup: male, Crl:CD (SD), rat, iv, 5 mg/kg
Starred links: 1 amine or outer side, 2 acyl side, 3 side chain; linkers in the order of their positions; H or OH if unused. Non-standard residues stand in square brackets, D forms with d. Residues, ends and D or L forms follow the SMILES beside them. ξ: configuration not given here. Oic = O=C(O)[C@@H]1C[C@@H]2CCCC[C@@H]2N1; GABOB(3R) = O=C(C[C@@H](O)CN[*:1])[*:2]; tBuAla = CC(C)(C)C[C@H](N)C(=O)O; ξVal(3-OH) = CC(C)(O)C(N)C(=O)O; 4Amb = NCc1ccc(C(=O)O)cc1

>  <compound>
CC(C)(C)C[C@@H]1NC(=O)C[C@@H](O)CNC(=O)[C@@H]2C[C@@H]3CCCC[C@@H]3N2C(=O)[C@H](CC(C)(C)C)NC(=O)c2ccc(cc2)CNC(=O)C(C(C)(C)O)NC(=O)[C@@H](Cc2ccccc2)NC1=O (stereo partly drawn) [compound 109] (cyclo([4Amb][tBuAla][Oic][GABOB(3R)][tBuAla][dF][ξVal(3-OH)]))

>  <level at 0.167 h>
23700 ng/mL

$$$$

###

# test_description: Aggregation / solubility at 1 mM
# Format: physicochemical
# experimental_setup: summary calls it solubility at 1mM
# Procedure: The solubilities of the synthesized compounds were determined experimentally (Supplementary Table 2). Most compounds were highly soluble at a 1 mM concentration; however, some compounds tended to form aggregates. […] In addition, we experimentally determined the lipophilicity of each compound, logP(oct/wat)=log(soluteoct/solutewat ), which is the partition coefficient of a compound between aqueous (water) and lipophilic (octanol) phases (Supplementary Table 2).
Starred links: 1 amine or outer side, 2 acyl side, 3 side chain; linkers in the order of their positions; H or OH if unused. Positions of bridges follow the written chain, without caps; N, C: chain ends. Non-standard residues stand in square brackets, D forms with d. Residues, ends and D or L forms follow the SMILES beside them. *: point of attachment. Leu(4,5-dehydro) = C=C(C)C[C@H](N)C(=O)O; Oic = O=C(O)[C@@H]1C[C@@H]2CCCC[C@@H]2N1; d(tBuAla) = CC(C)(C)C[C@@H](N)C(=O)O; dVal(3-OH) = CC(C)(O)[C@@H](N)C(=O)O; R5 = C=CCCC[C@@](C)(N)C(=O)O; S5 = C=CCCC[C@](C)(N)C(=O)O; X1 = O=C(CC(O)CN[*:1])[*:2]; 4Amb = NCc1ccc(C(=O)O)cc1; X3 = NCC(O)CC(=O)*

>  <compound>
C=C(C)C[C@H](NC(=O)[C@H](CCC(=O)O)NC(=O)[C@H](NC(=O)[C@H](N)Cc1ccccc1)C(C)(C)O)C(=O)N1CCC[C@H]1C(=O)N[C@H](C(=O)N[C@H](C(=O)O)[C@@H](C)CC)[C@@H](C)O [compound 036] (H-[dF][dVal(3-OH)]E[Leu(4,5-dehydro)]PTI-OH)

>  <Aggregation at 1mM>
weak signal

$$$$
>  <compound>
CC[C@H](C)[C@H](NC(=O)CC(O)CNC(=O)[C@@H]1[C@@H]2CCCC[C@@H]2CN1C(=O)[C@H](CC(C)(C)C)NC(=O)c1cccc(CNC(=O)[C@H](NC(=O)[C@@H](N)Cc2ccccc2)C(C)(C)O)c1)C(=O)O (stereo partly drawn)

>  <Aggregation at 1mM>
0.18

$$$$
>  <compound>
C=C(C)C[C@@H]1NC(=O)[C@](C)(NC(=O)c2ccc(CNC(=O)CC(O)CN)cc2)CCC/C=C\CCC[C@@](C)(C(=O)N[C@H](CC(C)(C)C)C(=O)O)NC(=O)CC(O)CNC(=O)[C@@H]2C[C@@H]3CCCC[C@@H]3N2C1=O (stereo partly drawn) [compound 107] ({X3-4Amb}-[R5][Leu(4,5-dehydro)][Oic][X1][S5][d(tBuAla)]-OH; staple (Z) 1-5)

>  <Aggregation at 1mM>
weak signal

$$$$

###

# test_description: in vitro
# experimental_setup: human, plasma
Starred links: 1 amine or outer side, 2 acyl side, 3 side chain; linkers in the order of their positions; H or OH if unused. Non-standard residues stand in square brackets, D forms with d. Residues, ends and D or L forms follow the SMILES beside them. ξ: configuration not given here. Oic = O=C(O)[C@@H]1C[C@@H]2CCCC[C@@H]2N1; GABOB(3R) = O=C(C[C@@H](O)CN[*:1])[*:2]; tBuAla = CC(C)(C)C[C@H](N)C(=O)O; ξVal(3-OH) = CC(C)(O)C(N)C(=O)O; 4Amb = NCc1ccc(C(=O)O)cc1

>  <compound>
CC(C)(C)C[C@@H]1NC(=O)C[C@@H](O)CNC(=O)[C@@H]2C[C@@H]3CCCC[C@@H]3N2C(=O)[C@H](CC(C)(C)C)NC(=O)c2ccc(cc2)CNC(=O)C(C(C)(C)O)NC(=O)[C@@H](Cc2ccccc2)NC1=O (stereo partly drawn) [compound 109] (cyclo([4Amb][tBuAla][Oic][GABOB(3R)][tBuAla][dF][ξVal(3-OH)]))

>  <half-life at 5 μM>
> 8 h

$$$$

###

# test_description: in vitro
# experimental_setup: rat, plasma
Starred links: 1 amine or outer side, 2 acyl side, 3 side chain; linkers in the order of their positions; H or OH if unused. Non-standard residues stand in square brackets, D forms with d. Residues, ends and D or L forms follow the SMILES beside them. ξ: configuration not given here. Oic = O=C(O)[C@@H]1C[C@@H]2CCCC[C@@H]2N1; GABOB(3R) = O=C(C[C@@H](O)CN[*:1])[*:2]; tBuAla = CC(C)(C)C[C@H](N)C(=O)O; ξVal(3-OH) = CC(C)(O)C(N)C(=O)O; 4Amb = NCc1ccc(C(=O)O)cc1

>  <compound>
CC(C)(C)C[C@@H]1NC(=O)C[C@@H](O)CNC(=O)[C@@H]2C[C@@H]3CCCC[C@@H]3N2C(=O)[C@H](CC(C)(C)C)NC(=O)c2ccc(cc2)CNC(=O)C(C(C)(C)O)NC(=O)[C@@H](Cc2ccccc2)NC1=O (stereo partly drawn) [compound 109] (cyclo([4Amb][tBuAla][Oic][GABOB(3R)][tBuAla][dF][ξVal(3-OH)]))

>  <readout_unit>
%

>  <remaining at 2 h, 5 μM>
76.5

$$$$

###

# test_description: Non-GLP dose-escalation (MTD) study in rats
# Type: in vivo, rat
# experimental_setup: rat, in vivo; male Crl:CD (SD) rats, single IV bolus; read-out: no observed adverse effect level (NOAEL)
Starred links: 1 amine or outer side, 2 acyl side, 3 side chain; linkers in the order of their positions; H or OH if unused. Non-standard residues stand in square brackets, D forms with d. Residues, ends and D or L forms follow the SMILES beside them. ξ: configuration not given here. Oic = O=C(O)[C@@H]1C[C@@H]2CCCC[C@@H]2N1; GABOB(3R) = O=C(C[C@@H](O)CN[*:1])[*:2]; tBuAla = CC(C)(C)C[C@H](N)C(=O)O; ξVal(3-OH) = CC(C)(O)C(N)C(=O)O; 4Amb = NCc1ccc(C(=O)O)cc1

>  <compound>
CC(C)(C)C[C@@H]1NC(=O)C[C@@H](O)CNC(=O)[C@@H]2C[C@@H]3CCCC[C@@H]3N2C(=O)[C@H](CC(C)(C)C)NC(=O)c2ccc(cc2)CNC(=O)C(C(C)(C)O)NC(=O)[C@@H](Cc2ccccc2)NC1=O (stereo partly drawn) [compound 109] (cyclo([4Amb][tBuAla][Oic][GABOB(3R)][tBuAla][dF][ξVal(3-OH)]))

>  <NOAEL at 72 h [mg/kg]>
5

$$$$

###

Known inhibition at 0.25 µM of a selection of compounds
# assayed_target: EB3 interactions with IP3R3-GFP (Homo sapiens, UniProt Q9UPY8)
# Sequence (Q9UPY8 whole entry): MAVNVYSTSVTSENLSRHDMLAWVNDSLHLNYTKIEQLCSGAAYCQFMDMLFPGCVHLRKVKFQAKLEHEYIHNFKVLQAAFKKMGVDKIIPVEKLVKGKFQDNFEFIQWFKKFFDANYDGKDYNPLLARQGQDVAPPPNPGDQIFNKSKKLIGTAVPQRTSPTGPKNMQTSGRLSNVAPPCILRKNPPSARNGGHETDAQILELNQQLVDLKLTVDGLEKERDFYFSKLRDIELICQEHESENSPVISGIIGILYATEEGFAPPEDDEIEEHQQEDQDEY
# test_description: Competitive binding: inhibition of EB3 interaction with IP3R3-GFP in vitro
# Format: biochemical
# experimental_setup: 250 nM
Starred links: 1 amine or outer side, 2 acyl side, 3 side chain; linkers in the order of their positions; H or OH if unused. Positions of bridges follow the written chain, without caps; N, C: chain ends. Non-standard residues stand in square brackets, D forms with d. Residues, ends and D or L forms follow the SMILES beside them. ξ: configuration not given here. *: point of attachment. Leu(4,5-dehydro) = C=C(C)C[C@H](N)C(=O)O; Oic = O=C(O)[C@@H]1C[C@@H]2CCCC[C@@H]2N1; X4 = C=C(C)C[C@@H](N[*:1])C(=O)[*:2]; d(tBuAla) = CC(C)(C)C[C@@H](N)C(=O)O; dVal(3-OH) = CC(C)(O)[C@@H](N)C(=O)O; R5 = C=CCCC[C@@](C)(N)C(=O)O; S5 = C=CCCC[C@](C)(N)C(=O)O; X1 = O=C(CC(O)CN[*:1])[*:2]; 4Amb = NCc1ccc(C(=O)O)cc1; X3 = NCC(O)CC(=O)*; ξP = O=C(O)C1CCCN1

>  <compound>
C=C(C)C[C@H](NC(=O)[C@@H](NC(=O)[C@@H]1CCCN1C(=O)[C@@H](CC(=C)C)NC(=O)[C@H](CCC(=O)O)NC(=O)[C@H](NC(=O)[C@H](N)Cc1ccccc1)C(C)(C)O)[C@@H](C)O)C(=O)O [compound 049] (H-[dF][dVal(3-OH)]E[X4]PT[Leu(4,5-dehydro)]-OH)

>  <inhibition at 0.25 µM [%]>
52

$$$$
>  <compound>
CC[C@H](C)[C@@H]1NC(=O)[C@H]([C@@H](C)O)NC(=O)[C@@H]2CCCN2C(=O)[C@H]([C@@H](C)CC)NC(=O)[C@H](CCC(=O)O)NC(=O)[C@H]([C@@H](C)O)NC(=O)[C@H](Cc2ccccc2)NC(=O)CNC(=O)CNC(=O)[C@H]([C@@H](C)O)NC(=O)CC[C@@H](C(=O)O)NC(=O)[C@@H]2CCCN2C(=O)[C@H](CC(C)C)NC1=O [compound 013] (TGGFTEIPTILPE-OH; lactam N-13)

>  <inhibition at 0.25 µM [%]>
51

$$$$
>  <compound>
CC[C@H](C)[C@@H]1NC(=O)[C@H]([C@@H](C)O)NC(=O)[C@@H]2CCCN2C(=O)[C@H]([C@@H](C)CC)NC(=O)[C@H](CCC(=O)O)NC(=O)[C@H]([C@@H](C)O)NC(=O)[C@H](Cc2ccccc2)NC1=O [compound 012] (cyclo(EIPTIFT))

>  <inhibition at 0.25 µM [%]>
49

$$$$
>  <compound>
C=C(C)C[C@@H]1NC(=O)[C@](C)(NC(=O)c2ccc(CNC(=O)CC(O)CN)cc2)CCC/C=C\CCC[C@@](C)(C(=O)N[C@H](CC(C)(C)C)C(=O)O)NC(=O)CC(O)CNC(=O)[C@@H]2C[C@@H]3CCCC[C@@H]3N2C1=O (some centres unmarked) [compound 107] ({X3-4Amb}-[R5][Leu(4,5-dehydro)][Oic][X1][S5][d(tBuAla)]-OH; staple (Z) 1-5)

>  <inhibition at 0.25 µM [%]>
65

$$$$
>  <compound>
C=C(C)C[C@H]1NC(=O)[C@](C)(NC(=O)[C@@H](CCC(=O)O)NC(=O)[C@H](N)[C@H](C)O)CCC/C=C\CCC[C@](C)(C(=O)N[C@H](C(=O)O)[C@@H](C)CC)NC(=O)[C@H]([C@@H](C)O)NC(=O)C2CCCN2C1=O (some centres unmarked) [compound 052] (H-[dT][dE][R5][X4][ξP]T[R5]I-OH; staple (Z) 3-7)

>  <inhibition at 0.25 µM [%]>
73

$$$$
